Listed next: entries and their corresponding melting point.

A selection of reference data follows.
molecule	melting point
CCCc1cccc(Cl)c1C(=O)N[C@@H](Cc1ccc(-c2c(C)n(C)c(=O)n(C)c2=O)cc1)C(=O)O	205 to 209 °C
Cn1cc(C(O)c2cccc(Cl)c2)cc1C(=O)O (stereo unspecified)	180 °C
CCOC(=O)C(=O)Nc1c([N+](=O)[O-])sc2c(F)cccc12	148 to 151 °C
COC(=O)c1ccc(/C=C(\C)c2ccc3c(c2)OC(C)(C)O3)cc1	72 to 74 °C
CNCCn1nc2c3c(c(Cl)ccc31)C(=O)c1c(OCc3ccccc3)ccc(OCc3ccccc3)c1-2	171 to 176 °C
Clc1cc(-c2ccncc2)ccn1	193 to 196 °C

Q: // query melting point value for entry CCc1ncnc(N[C@H]2CC[C@@H](C(C)(C)O)CC2)c1Cl
Result: 75 to 76 °C

Q: // query melting point value for entry CCCCCCCCCCCCCCCCNc1ccc(COC(C)=O)cc1
Result: 43 to 45 °C

Q: // query melting point value for entry CCN(CCCc1c[nH]c2ccc(Cl)cc12)C1COc2c(F)ccc(C(N)=O)c2C1 (stereo unspecified)
Result: 149 to 156 °C

Q: // query melting point value for entry CCn1ccc2ncnc(Oc3ccc(NC(=O)Nc4cccc(C(F)(F)F)c4)c(Cl)c3)c21
Result: 172 to 176 °C

Q: // query melting point value for entry O=c1[nH]c(=O)n(C2COC(CO)C2CO)cc1C=CBr (stereo unspecified)
Result: 142 to 143 °C

----------
Listed next: entries and their corresponding melting point.

A selection of reference data follows.
molecule	melting point
O=Cc1cccn1C(=O)c1ccccc1[N+](=O)[O-]	95 to 99 °C
CC(=O)Nc1nc2c(s1)-c1nc(N3CCOCC3)ncc1C2	> 300 °C
CCOC(=O)c1cccc2c(=O)cc(-c3ccc(OCc4ccc5ccccc5c4)cc3)oc12	245 to 249 °C
Fc1ccc(C2=Nc3cccnc3Nc3ccccc32)cc1	203 to 205 °C
CN(C)CCNc1ccnc2cc3c(cc12)OCO3	193 to 194 °C

Q: // query melting point value for entry CC1(C)Oc2ccc(C#N)cc2[C@@H](Nc2cc(Cl)ncn2)[C@@H]1O (relative stereo)
Result: 204 to 208 °C

Q: // query melting point value for entry CC(=O)Nc1ccc(-c2cc(C(=O)c3ccc(Cl)cc3Cl)sc2N2CCOCC2)cc1
Result: 145 °C

Q: // query melting point value for entry CCC1CCCCc2c1oc(=O)c(C(c1ccccc1)C1CC1)c2O (stereo unspecified)
Result: 63 to 71 °C

Q: // query melting point value for entry CS(=O)(=O)N(C(=O)c1cc(Oc2ccc(C(F)(F)F)cc2Cl)ccc1[N+](=O)[O-])C(=O)c1cc(Oc2ccc(C(F)(F)F)cc2Cl)ccc1[N+](=O)[O-]
Result: 166 to 168 °C

Q: // query melting point value for entry Nc1nc(-c2cc(Cl)ccc2Cl)nc(N2CCCCC2)n1
Result: 192 to 194 °C

Q: // query melting point value for entry CCC(=O)c1cnc2c(O)cccc2c1Nc1ccccc1C
Result: 125 to 128 °C

Q: // query melting point value for entry O=Cc1c(O)c(Cl)cc(Cl)c1OCCCCC(=O)O
Result: 85 to 87 °C

----------
Listed next: entries and their corresponding melting point.

compound	melting point
COc1cc(/C=C/C(=O)/C=C/c2cc(OC)c(O)c(OC)c2)cc(OC)c1O	166 to 168 °C
CCS(=O)(=O)Nc1cccc(COc2cc(F)cc(Nc3ccc(I)cc3F)c2C(N)=O)c1	170 °C
CCCc1cc(C(=O)O)ccc1OCCCCCCc1cccc(O)c1O	123 to 124 °C
Fc1ccc2c(c1)Cc1cccnc1-2	80 to 84 °C
CCOC(=O)c1cnc2c(N(C)Cc3ccccc3)cc(CN3CCOCC3)cc2c1O	151 to 153 °C
O=Cc1cccnc1Oc1ccc(Cl)c(Cl)c1	97 to 99 °C

Q: // query melting point value for entry CC(C)(C)NC(=O)CN1C(=O)C(N)CC(c2ccc(Cl)c(Cl)c2)c2ccccc21 (configuration not stated)
Result: 140 to 150 °C

Q: // query melting point value for entry O=c1[nH]c(-c2ccc(O)cc2)cc2ccccc12
Result: 239 to 241 °C

Q: // query melting point value for entry CC(C)(C)OCOc1cc(NC(=O)NC(=O)c2ccc(C#N)cc2)ccc1OCC(=O)OC(C)(C)C
Result: 161 to 162 °C

Q: // query melting point value for entry Cc1ccc(-c2[nH]c(-c3cccnc3)nc2C(=O)Nc2nccs2)cc1
Result: > 200 °C

Q: // query melting point value for entry C[C@H](c1ccccc1)n1c(N)nc2c(N)nc3ccccc3c21
Result: 135 to 140 °C
